Each recorded value in this set is attributed to patent US20130330346A1.

assayed.system: T1, Cynomolgus CXCR2 (cynomolgus, UniProt Q28519 3-353 (rhesus entry))
T1 construct: On transfected HEK293T or RBL-2H3 cells; native on cynomolgus neutrophils in the WBSC assay; also called cCXCR2; cynoCXCR2
T1 chain: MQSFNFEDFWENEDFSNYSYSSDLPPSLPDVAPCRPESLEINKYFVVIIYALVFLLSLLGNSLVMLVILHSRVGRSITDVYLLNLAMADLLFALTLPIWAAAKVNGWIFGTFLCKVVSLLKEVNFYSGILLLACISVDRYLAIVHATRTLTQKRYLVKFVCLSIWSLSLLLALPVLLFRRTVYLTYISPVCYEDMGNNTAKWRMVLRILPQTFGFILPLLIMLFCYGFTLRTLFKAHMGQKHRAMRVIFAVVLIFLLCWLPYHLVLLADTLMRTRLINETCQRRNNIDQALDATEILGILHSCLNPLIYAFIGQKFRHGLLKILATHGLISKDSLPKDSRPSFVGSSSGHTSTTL
method.description: FACS competition vs 3 nM FMAT-Blue Gro-α
Experimental: Multivalent anti-CXCR2Nanobodies were titrated against 3 nM FMAT-Blue-labeled Gro-α in the FACS ligand competition assay on human and cynomolgus CXCR2 (Table 14). On human CXCR2, blocking potencies range between double digit nM and sub-nM whereas on cynomolgus CXCR2, they range between single and double digit nM.
parameter: % inhibition of max (%)

INSERT INTO results (binder, parameter, reading_unit, value_measured) VALUES
  ('CXCR20013 (bispecific antibody, Biparatopic: two VHH joined by a GlySer linker; also called 2B2-35GS-97A9; not shown: C-terminal c-myc tag and His6 tag coded by pAX100) EVQLVESGGELVQPGGSLRLSCAASGSILTINAMGWYRQAPGKQRELVVRRTRGGSTTYQDSVKGRFTISADIAKKTMYLQMNSLKPEDTAVYYCMLDDRGGVYWGQGTQVTVSSGGGGSGGGGSGGGGSGGGGSGGGGSGGGGSGGGGSEVQLVESGGGLVQPGGSLRLSCVASGSIVRINTMGWYRQTPGKQRELVADITSGGNINYIDAVKGRFTISRDNTKNTVYLQMNSLKPEDTAVYYCNAEIVVLVGVWTQRARTGNYWGQGTQVTVSS', '% inhibition of max', '%', 98.5),
  ('CXCR20019 (VHH, Bivalent: two VHH joined by a 9GS linker; also called 2B2-9GS-2B2; not shown: C-terminal c-myc tag and His6 tag coded by pAX100) EVQLVESGGELVQPGGSLRLSCAASGSILTINAMGWYRQAPGKQRELVVRRTRGGSTTYQDSVKGRFTISADIAKKTMYLQMNSLKPEDTAVYYCMLDDRGGVYWGQGTQVTVSSGGGGSGGGSEVQLVESGGELVQPGGSLRLSCAASGSILTINAMGWYRQAPGKQRELVVRRTRGGSTTYQDSVKGRFTISADIAKKTMYLQMNSLKPEDTAVYYCMLDDRGGVYWGQGTQVTVSS', '% inhibition of max', '%', 81),
  ('CXCR20027 (bispecific antibody, Two different VHH joined by a GlySer linker; also called 163E3-35GS-163D2; not shown: C-terminal c-myc tag and His6 tag coded by pAX100) EVQLVESGGGLVQPGGSLRLSCVASGRIFSSNAMGWFRQAPGKEREFVAAITWRSGGSAYYADSAKGRFTISRDNAKNTVYLQMNSLKPEDTAVYYCAAGGSSWLSFPPDYWGQGTQVTVSSGGGGSGGGGSGGGGSGGGGSGGGGSGGGGSGGGGSEVQLVESGGGLVQAGGSLRLSCAASGRTFSDYAMGWFRQAPGKEREFVAAITWNGGRVFYTASVKGRFTISRDNAKNTMYLQMNSLKPEDTAVYYCAADKDRRTDYLGHPVAYWGQGTQVTVSS', '% inhibition of max', '%', 97);
